System: Staphylococcus epidermidis
Test: Antibacterial activity against Staphylococcus epidermidis KCTC 1917 assessed as growth inhibition after 18 to 20 hrs by broth microdilution method
Format: functional
endpoint.label: MIC (µg/mL)
Answer format: numeric, µg/mL implied, no suffix.

See these solved cases before continuing.
[[record]]
smiles_repr = "CCCCCCCCCCn1c[n+](CCCCCCCCCC)cc1C[C@H](N)C(=O)N[C@@H](CCCNC(=N)N)C(N)=O"
recorded_result = 2

[[record]]
smiles_repr = "CCCCCCCCCCn1cncc1C[C@H](NC(=O)[C@@H](N)CCCNC(=N)N)C(=O)N[C@@H](CCCNC(=N)N)C(N)=O"
recorded_result = 2

[[record]]
smiles_repr = "CCCCCCCn1c[n+](CCCCCCC)cc1C[C@H](NC(=O)[C@@H](N)CCCNC(=N)N)C(=O)N[C@@H](CCCNC(=N)N)C(N)=O"
recorded_result = 2

[[record]]
smiles_repr = "CCCCCCCCCCn1c[n+](CCCCCCCCCC)cc1C[C@H](NC(=O)[C@H](CCCNC(=N)N)NC(=O)[C@@H](N)CCCNC(=N)N)C(N)=O"
recorded_result = 8


# input for lookup
Provide MIC value for the following compound: `CCCCCCCCCCn1c[n+](CCCCCCCCCC)cc1C[C@H](N)C(=O)N[C@@H](CCCNC(=N)N)C(=O)N[C@@H](CCCNC(=N)N)C(N)=O`
4

###

Tested on: Staphylococcus aureus
Test: Antibacterial activity against Staphylococcus aureus KCTC 1621 assessed as growth inhibition after 18 to 20 hrs by broth microdilution method
Assay type: functional
endpoint.label: MIC (µg/mL)
Answer format: numeric, µg/mL implied, no suffix.

See these solved cases before continuing.
[[record]]
smiles_repr = "CCCCCCCCCCn1c[n+](CCCCCCCCCC)cc1C[C@H](NC(=O)[C@@H](N)CCCNC(=N)N)C(=O)N[C@@H](CCCNC(=N)N)C(N)=O"
recorded_result = 4

[[record]]
smiles_repr = "CCCCCCCCCCn1cncc1C[C@H](NC(=O)[C@@H](N)CCCNC(=N)N)C(=O)N[C@@H](CCCNC(=N)N)C(N)=O"
recorded_result = 4

[[record]]
smiles_repr = "CCCCCCCCCCn1c[n+](CCCCCCCCCC)cc1C[C@H](N)C(=O)N[C@@H](CCCNC(=N)N)C(=O)N[C@@H](CCCNC(=N)N)C(N)=O"
recorded_result = 4

[[record]]
smiles_repr = "CCCCCCCCCCn1c[n+](CCCCCCCCCC)cc1C[C@H](NC(=O)[C@H](CCCNC(=N)N)NC(=O)[C@@H](N)CCCNC(=N)N)C(N)=O"
recorded_result = 8

[[record]]
smiles_repr = "CCCCCCC/C=C/Cn1cncc1C[C@H](NC(=O)[C@@H](N)CCCNC(=N)N)C(=O)N[C@@H](CCCNC(=N)N)C(N)=O"
recorded_result = 8


Provide MIC value for the following compound: `CCCCCCCCCCn1c[n+](CCCCCCCCCC)cc1C[C@H](N)C(=O)N[C@@H](CCCNC(=N)N)C(N)=O`
2

Provide MIC value for the following compound: `CCCCCCCn1c[n+](CCCCCCC)cc1C[C@H](NC(=O)[C@@H](N)CCCNC(=N)N)C(=O)N[C@@H](CCCNC(=N)N)C(N)=O`
4

###

The compounds listed here are annotated with their MIC.
Tested on: Escherichia coli
Experiment: Antibacterial activity against Escherichia coli KCTC 1682 assessed as growth inhibition after 18 to 20 hrs by broth microdilution method
Format: functional
Answer format: numeric, mg/L implied, no suffix.

See these solved cases before continuing.
[[record]]
smiles_repr = "CCCCCCCn1c[n+](CCCCCCC)cc1C[C@H](NC(=O)[C@@H](N)CCCNC(=N)N)C(=O)N[C@@H](CCCNC(=N)N)C(N)=O"
measured_target = "Escherichia coli"
unit_spec = "mg/L"
recorded_result = 4

[[record]]
smiles_repr = "CCCCCCCCCCn1c[n+](CCCCCCCCCC)cc1C[C@H](N)C(=O)N[C@@H](CCCNC(=N)N)C(=O)N[C@@H](CCCNC(=N)N)C(N)=O"
measured_target = "Escherichia coli"
unit_spec = "mg/L"
recorded_result = 8

[[record]]
smiles_repr = "CCCCCCCCCCn1c[n+](CCCCCCCCCC)cc1C[C@H](NC(=O)[C@@H](N)CCCNC(=N)N)C(=O)N[C@@H](CCCNC(=N)N)C(N)=O"
measured_target = "Escherichia coli"
unit_spec = "mg/L"
recorded_result = 8

[[record]]
smiles_repr = "CCCCCCCCCCn1c[n+](CCCCCCCCCC)cc1C[C@H](NC(=O)[C@H](CCCNC(=N)N)NC(=O)[C@@H](N)CCCNC(=N)N)C(N)=O"
measured_target = "Escherichia coli"
unit_spec = "mg/L"
recorded_result = 16


Provide MIC value for the following compound: `CCCCCCCCCCn1cncc1C[C@H](NC(=O)[C@@H](N)CCCNC(=N)N)C(=O)N[C@@H](CCCNC(=N)N)C(N)=O`
16

Provide MIC value for the following compound: `CCCCCCCCCCn1c[n+](CCCCCCCCCC)cc1C[C@H](N)C(=O)N[C@@H](CCCNC(=N)N)C(N)=O`
4

Provide MIC value for the following compound: `CCCCCCC/C=C/Cn1cncc1C[C@H](NC(=O)[C@@H](N)CCCNC(=N)N)C(=O)N[C@@H](CCCNC(=N)N)C(N)=O`
32

###

Tested on: Salmonella typhimurium
Assay: Antibacterial activity against Salmonella typhimurium KCTC 1926 assessed as growth inhibition after 18 to 20 hrs by broth microdilution method
Assay type: functional, Salmonella enterica subsp. enterica serovar Typhimurium
Settings: Salmonella enterica
endpoint.label: MIC
Please give the number followed by its unit.

See these solved cases before continuing.
[[record]]
smiles_repr = "CCCCCCCCCCn1c[n+](CCCCCCCCCC)cc1C[C@H](NC(=O)[C@@H](N)CCCNC(=N)N)C(=O)N[C@@H](CCCNC(=N)N)C(N)=O"
measured_target = "Salmonella typhimurium"
recorded_result = "8 µg/mL"

[[record]]
smiles_repr = "CCCCCCCn1c[n+](CCCCCCC)cc1C[C@H](NC(=O)[C@@H](N)CCCNC(=N)N)C(=O)N[C@@H](CCCNC(=N)N)C(N)=O"
measured_target = "Salmonella typhimurium"
recorded_result = "8 µg/mL"

[[record]]
smiles_repr = "CCCCCCC/C=C/Cn1cncc1C[C@H](NC(=O)[C@@H](N)CCCNC(=N)N)C(=O)N[C@@H](CCCNC(=N)N)C(N)=O"
measured_target = "Salmonella typhimurium"
recorded_result = "64 µg/mL"


# input for lookup
Provide MIC value for the following compound: `CCCCCCCCCCn1cncc1C[C@H](NC(=O)[C@@H](N)CCCNC(=N)N)C(=O)N[C@@H](CCCNC(=N)N)C(N)=O`
32 µg/mL
